- target.system: T1, human GIP receptor (human) (UniProt P48546)
- T1 sequence (looked up): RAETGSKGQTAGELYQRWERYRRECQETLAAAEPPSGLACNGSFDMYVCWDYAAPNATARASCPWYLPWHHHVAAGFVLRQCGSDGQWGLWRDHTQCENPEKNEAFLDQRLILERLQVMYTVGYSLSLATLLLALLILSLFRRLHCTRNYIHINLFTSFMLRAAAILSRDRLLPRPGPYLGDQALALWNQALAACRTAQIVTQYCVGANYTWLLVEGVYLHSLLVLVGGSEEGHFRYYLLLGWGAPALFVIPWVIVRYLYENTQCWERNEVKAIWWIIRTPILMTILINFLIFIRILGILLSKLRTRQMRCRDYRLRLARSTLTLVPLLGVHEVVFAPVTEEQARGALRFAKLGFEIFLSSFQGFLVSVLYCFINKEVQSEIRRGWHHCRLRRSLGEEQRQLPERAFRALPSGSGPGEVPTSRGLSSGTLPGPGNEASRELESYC
- assay.comment: cell-based or functional assay
As shown below, each of these binders has a reported cAMP EC50 value.

binder	cAMP EC50 [nM]
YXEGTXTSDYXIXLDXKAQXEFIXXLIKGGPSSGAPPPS (Y-Aib-EGT-αMeF(2F)-TSDY-Aib-I-αMeL-LD-Orn-K((2-[2-(2-Amino-ethoxy)-ethoxy]-acetyl)2-(10-(4-carboxyphenoxy)decanoyl))AQ-Aib-EFI-(D-Glu)-αMeY-LIK((2-[2-(2-Amino-ethoxy)-ethoxy]-acetyl)2-(10-(4-carboxyphenoxy)decanoyl))GGPSSGAPPPS-NH2) [Example 396]	0.0113
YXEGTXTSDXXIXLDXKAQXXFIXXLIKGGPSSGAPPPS (Y-Aib-EGT-αMeF(2F)-TSD-4Pal-Aib-I-αMeL-LD-Orn-K((2-[2-(2-Amino-ethoxy)-ethoxy]-acetyl)3-(γ-Glu)-CO-(CH2)10-CH3)AQ-Aib-Orn-FI-(D-Glu)-αMeY-LIK((2-[2-(2-Amino-ethoxy)-ethoxy]-acetyl)3-(γ-Glu)-CO-(CH2)10-CH3)GGPSSGAPPPS-NH2) [Example 434]	0.00704
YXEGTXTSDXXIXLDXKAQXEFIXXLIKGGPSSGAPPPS (Y-Aib-EGT-αMeF(2F)-TSD-4Pal-Aib-I-αMeL-LD-Orn-K((2-[2-(2-Amino-ethoxy)-ethoxy]-acetyl)3-(γ-Glu)-CO-(CH2)10-CH3)AQ-Aib-EFI-(D-Glu)-αMeY-LIK((2-[2-(2-Amino-ethoxy)-ethoxy]-acetyl)3-(γ-Glu)-CO-(CH2)10-CH3)GGPSSGAPPPS-NH2) [Example 423]	0.00658
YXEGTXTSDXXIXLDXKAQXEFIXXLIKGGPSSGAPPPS (Y-Aib-EGT-αMeF(2F)-TSD-4Pal-Aib-I-αMeL-LD-Orn-K((2-[2-(2-Amino-ethoxy)-ethoxy]-acetyl)-(γ-Glu)-CO-(CH2)10-CH3)AQ-Aib-EFI-(D-Glu)-αMeY-LIK((2-[2-(2-Amino-ethoxy)-ethoxy]-acetyl)-(γ-Glu)-CO-(CH2)10-CH3)GGPSSGAPPPS-NH2) [Example 427]	0.0132
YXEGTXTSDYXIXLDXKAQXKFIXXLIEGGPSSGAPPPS (Y-Aib-EGT-αMeF(2F)-TSDY-Aib-I-αMeL-LD-Orn-K((2-[2-(2-Amino-ethoxy)-ethoxy]-acetyl)2-(10-(4-carboxyphenoxy)decanoyl))AQ-Aib-K((2-[2-(2-Amino-ethoxy)-ethoxy]-acetyl)2-(10-(4-carboxyphenoxy)decanoyl))FI-(D-Glu)-αMeY-LIEGGPSSGAPPPS-NH2) [Example 393]	0.0115
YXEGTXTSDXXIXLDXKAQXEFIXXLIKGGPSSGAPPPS (Y-Aib-EGT-αMeF(2F)-TSD-4Pal-Aib-I-αMeL-LD-Orn-K((2-[2-(2-Amino-ethoxy)-ethoxy]-acetyl)-(γ-Glu)-(10-(4-carboxyphenoxy)decanoyl))AQ-Aib-EFIe-αMeY-LIK((2-[2-(2-Amino-ethoxy)-ethoxy]-acetyl)-(γ-Glu)-(10-(4-carboxyphenoxy)decanoyl))GGPSSGAPPPS-NH2) [Example 361]	0.0121
